Just for reference, paper PMC12612990 is where these values come from.

Assay: Toxicokinetics of PNA5 in Beagle dog plasma
Details: both, Beagle, dog, plasma, sc, 5 mg/kg/day, Cmax, Beagle dogs, plasma, s.c. once daily 5 mg/kg/day, day 1, sexes combined, mean ± SD, n = 6, UHPLC-MS/MS, noncompartmental
Peptide text beside a SMILES is read from it. * marks the point of attachment. βGlc = OC[C@H]1O[C@@H](*)[C@H](O)[C@@H](O)[C@@H]1O
OBSERVED_PROPERTY: Cmax (ng/mL)
Express the result in ng/mL but write the number alone.

IN: # query: Cmax of entry CC[C@H](C)[C@H](NC(=O)[C@H](Cc1ccc(O)cc1)NC(=O)[C@@H](NC(=O)[C@H](CCCNC(=N)N)NC(=O)[C@@H](N)CC(=O)O)C(C)C)C(=O)N[C@@H](Cc1c[nH]cn1)C(=O)N[C@@H](CO[C@@H]1O[C@H](CO)[C@@H](O)[C@H](O)[C@H]1O)C(N)=O [PNA5, Ang-1–6-Ser-O-Glu-NH2] (H-DRVYIHS(βGlc)-NH2)
OUT: 496
